Target: Human M4 (Homo sapiens, UniProt P08173)
Sequence (P08173 whole entry): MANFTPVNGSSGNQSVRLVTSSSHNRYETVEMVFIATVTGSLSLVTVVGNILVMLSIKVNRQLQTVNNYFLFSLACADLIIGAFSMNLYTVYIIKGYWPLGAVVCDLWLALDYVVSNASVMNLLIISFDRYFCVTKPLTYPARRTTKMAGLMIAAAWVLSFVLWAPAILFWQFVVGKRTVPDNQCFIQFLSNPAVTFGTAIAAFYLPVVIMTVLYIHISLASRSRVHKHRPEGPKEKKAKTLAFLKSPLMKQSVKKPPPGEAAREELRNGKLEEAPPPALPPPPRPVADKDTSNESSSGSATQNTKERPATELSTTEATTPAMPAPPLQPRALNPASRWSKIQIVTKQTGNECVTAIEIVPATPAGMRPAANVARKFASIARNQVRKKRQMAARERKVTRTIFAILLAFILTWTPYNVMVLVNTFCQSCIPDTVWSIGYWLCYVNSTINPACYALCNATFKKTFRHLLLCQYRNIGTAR
Test: mAChR M4 cell-based functional assay (calcium flux, PAM mode)
Settings: hM4-Gqi5 CHO-K1 cells; concentration-dependent increase in the EC20 acetylcholine response
Measured EC50, listed per entry for reference.
Measured parameter: EC50 (nM)

INSERT INTO assay_data (compound, quantity_unit, reported) VALUES
  ('Cc1cc2nccc(=O)n2nc1N1CC[C@@H](Oc2ccc3c(c2)OCCO3)C[C@H]1C [Compound 116]', 'nM', 1330),
  ('Cc1c(N2CCC(Oc3ccc4c(c3)OCCO4)CC2)nn2c(=O)ccnc2c1C1CC1', 'nM', 172),
  ('Cc1cc(=O)n2nc(N3CC[C@H](Oc4ccc5c(c4)OCCO5)[C@H](F)C3)c(C)cc2n1', 'nM', 224),
  ('Cc1ccc(OC2CCN(c3nn4c(=O)ccnc4cc3C)CC2)cn1', 'nM', 782),
  ('Cc1cc2nccc(=O)n2nc1N1CC[C@@H](Oc2ccc3c(c2)OCCO3)C[C@H]1C (stereo in doubt) [Compound 106]', 'nM', 818),
  ('[2H]C1([2H])Oc2ccc(OC3CCN(c4nn5c(=O)cc(C(F)F)nc5c(C)c4C)CC3)cc2OC1([2H])[2H]', 'nM', 28),
  ('Cc1cc2nccc(=O)n2nc1N1CCC(Oc2cc(F)c3c(c2)OCCO3)CC1', 'nM', 75),
  ('[2H]C1([2H])Oc2ccc(OC3CCN(c4nn5c(=O)c(Cl)c(C)nc5cc4C)CC3)cc2OC1([2H])[2H]', 'nM', 12);
